# Assay overview: viability loss with induced miR-34 in A549 – imaging, A549 dox-inducible miR-34, nuclei and caspase counts, primary screen (AID 1347080)
# Experimental context: A549 miR-34 inducible, Hoechst nuclei count, 48 h; measured here: total cells with miR-34 induction; stronger effect = lower value
Threshold-based label: cell count under 8000 gives Satisfied, cell count not under 8000 gives Not satisfied.

Q. is_below(cell count, 8000) for Cc1ccsc1C(=CCCN1CCCC(C(=O)O)C1)c1sccc1C (stereo not given) ?
A. Not satisfied

Q. Please state whether cell count is below 8000 for CCOc1ccccc1OC(c1ccccc1)[C@H]1CNCCO1 (stereo not given in full)
A. Not satisfied

Q. Is 8000 strictly greater than the compound's reported cell count? compound: "CCN(Cc1nccn1C)C(=O)c1cc(-c2cnc(C)nc2)nc2cc(F)ccc12"
A. Not satisfied

Q. Decide: cell count of CC(Cc1cc2c(c(C(N)=O)c1)N(CCCO)CC2)NCCOc1ccccc1OCC(F)(F)F (stereo not given) strictly below 8000?
A. Satisfied

Q. In plain terms, does CC1(C)O[C@@H]2C[C@H]3[C@@H]4CCC5=CC(=O)C=C[C@]5(C)[C@@H]4C(O)C[C@]3(C)[C@@]2(C(=O)CO)O1 (stereo not given in full) come in under 8000 for cell count?
A. Satisfied

Q. Given N#CC1C[C@@H]2C[C@H]2N1C(=O)C(N)C12CC3CC(CC(O)(C3)C1)C2 (stereo not given in full) , is recorded cell count strictly lower than 8000?
A. Satisfied

Q. Quick check: cell count of "CCCC(=O)Nc1ncnc2c1ncn2[C@@H]1O[C@@H]2OP(=O)(O)OC[C@H]2[C@H]1OC(=O)CCC" under 8000?
A. Not satisfied

Q. Lab note: confirm whether the reported cell count for this compound is below 8000, equality not counting. compound: "CCn1ncc2[nH]c(-c3c(OC(C)C)ccc4ccccc34)nc21"
A. Satisfied

---

Hi there, I'd appreciate the recorded inhibition for every entry that follows.
# Assay overview: growth inhibition, single agents and combos, LFS_MB_2R, cell-based, cisplatin combos, synergistic combos for chromothripsis tumors (AID 1671457);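 also: cells exposed to compound for four days before readout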
# Experimental context: LFS_MB_2R medulloblastoma cells, measured here: combination with cisplatin, at 5 µM, stronger effect = higher value
Lab book: enter the figure in %, no units written.

Q. // returns reported inhibition for input "O=C1C(=Cc2cccnc2)C(=O)c2ccccc21"
A. -18.7

Q. What inhibition value was documented for this compound, CC1CNC(=O)NC1=O (stereo not drawn) ?
A. -26.8

Q. What value of inhibition has been reported for the following compound? "COc1ccc(-c2nc(-c3cc(C(F)(F)F)cc(C(F)(F)F)c3)n(Cc3ccc(C(N)=O)cc3)c2-c2ccc(OC)cc2)cc1"
A. -13.3

Q. Item under review: CCC1(O)C(=O)OCc2c1cc1n(c2=O)Cc2cc3cc(O)ccc3nc2-1 (stereo not drawn) . Reported inhibition?
A. 65.3

Q. For the compound shown here, CCC(Sc1nnc2c3ccccc3n(CC)c2n1)C(=O)Nc1ccccc1OC (stereo not drawn) , give the reported inhibition.
A. -45.7

Q. // query inhibition value for entry CC(Oc1cc(-c2cnn(C3CCNCC3)c2)cnc1N)c1c(Cl)ccc(F)c1Cl (stereo not drawn)
A. 26.8

Q. I'd like to know its inhibition. The compound in question is "Cc1ccc(NC(=O)CCCCCC(=O)Nc2ccccc2N)cc1"
A. 50.2

Q. GET /values?readout=inhibition&item= "Cn1cc(-c2cnn3c(N)c(Br)c([C@H]4CCCNC4)nc23)cn1"
A. -6.17

Q. Bench note: what inhibition did Nc1ncn(C2OC(CO)C(O)C2O)c(=O)n1 (stereo not drawn) show?
A. 21.8

Q. May I ask what inhibition has been recorded for Cc1cn(C2C=CC(CO)O2)c(=O)[nH]c1=O (stereo not drawn) ?
A. -34.1

Q. // returns reported inhibition for input "C[C@@H]1O[C@@H](O[C@@H]2[C@@H](O)[C@H](OCCc3ccc(O)c(O)c3)O[C@H](CO)[C@H]2OC(=O)C=Cc2ccc(O)c(O)c2)[C@H](O)[C@H](O)[C@H]1O"
A. -36.7

Q. May I ask what inhibition has been recorded for C#CCC(CCCCCC)C(=O)O (stereo not drawn) ?
A. 6.31

Q. Give the measured inhibition of Cc1cn(C2CC(O)C(COP(=O)(O)OP(=O)(O)OP(=O)(O)O)O2)c(=O)[nH]c1=O (stereo not drawn) .
A. 26.6

Q. State the recorded inhibition for this entry: C=CC1=C(C)C2=CC3=NC(=C(CC(=O)O)C4=NC(=C(C)C4=C(O)O)C=c4[nH]c(c(C)c4CC)=CC1=N2)C(CCC(=O)O)C3C (stereo not drawn)
A. -14.7

Q. Query: inhibition; subject: "NC(=S)NN=Cc1ncccc1N"
A. -13.5

Q. Fill in: inhibition of "Cc1cc(C#N)cc(C)c1Oc1nc(Nc2ccc(C#N)cc2)nc(N)c1Br" is ___
A. -73.7

Q. Need inhibition of CC1OC(n2cc(F)c(=O)[nH]c2=O)C(O)C1O (stereo not drawn) , thanks.
A. -95.4

Q. // query inhibition value for entry "O=C(CCCCCCC(=O)NO)NO"
A. 4.86

Q. Return reported inhibition; argument: CC(C=CC(=O)NO)=CC(C)C(=O)c1ccc(N(C)C)cc1 (stereo not drawn)
A. 103

Q. Item under review: "Nc1nc(NC2CC2)cc(-c2cccc(Cl)c2Cl)n1" . Reported inhibition?
A. 18.1

Q. Consider the compound shown here: COc1cccc2c1C(=O)c1c(O)c3c(c(O)c1C2=O)CC(O)(C(=O)CO)CC3OC1CC(N)C(OC2CCCCO2)C(C)O1 (stereo not drawn) What is its recorded inhibition?
A. 86.3

Q. What does the record list as inhibition for "Cc1ccc([N+](=O)[O-])cc1S(=O)(=O)N(C)/N=C\c1cnc2ccc(Br)cn12" ?
A. 91.4

Q. Please look up its inhibition: CCC(C)C(=O)OC1CC(C)C=C2C=CC(C)C(CCC3CC(O)CC(=O)O3)C21 (stereo not drawn)
A. -7.2
